Attribution: patent US20220031842A1

Target: T1, LAG-3 extracellular domain with a Flag tag (human, UniProt P18627 23-434)
T1 construct: also called LAG-3-Flag; LAG-3-Flag antigen
T1 sequence: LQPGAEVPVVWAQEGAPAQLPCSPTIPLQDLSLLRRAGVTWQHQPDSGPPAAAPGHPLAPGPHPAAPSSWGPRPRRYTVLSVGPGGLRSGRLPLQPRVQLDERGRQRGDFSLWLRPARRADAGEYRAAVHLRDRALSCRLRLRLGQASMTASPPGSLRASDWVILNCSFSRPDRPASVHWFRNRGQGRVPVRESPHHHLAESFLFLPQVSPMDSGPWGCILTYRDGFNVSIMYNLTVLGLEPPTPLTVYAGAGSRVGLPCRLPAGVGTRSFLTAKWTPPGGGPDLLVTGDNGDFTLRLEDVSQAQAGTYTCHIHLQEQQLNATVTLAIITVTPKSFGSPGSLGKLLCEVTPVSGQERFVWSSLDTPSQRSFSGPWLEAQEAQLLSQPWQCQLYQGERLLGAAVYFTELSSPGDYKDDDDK
Experiment: SPR (Biacore), antibody captured on anti-human capture chip, LAG-3-Flag in flow
pKd: −log10 of the molar value.
Kind request: treat 10 as inclusive, so pKd at 10 or higher is label 1, anything lower is label 0.

- binder: "Hu229-009 (antibody, human IgG4 S228P, kappa, V domains shown, Humanized mAb229) VH: QVQLVQSGSELKKPGASVKVSCKASGYTFTTSGMSWVRQAPGQGLKWMGWINTYSGVPTYADDFKGRFVFSLDTSVSTAYLQISSLKAEDTAVYYCARDNYDARDVYYYAMDYWGQGTTVTVSS VL: DIQMTQSPSSLSASVGDRVTITCRASENIYSNLAWYQQKPGKAPKLLVYAATNLADGVPSRFSGSGSGTDYTLTISSLQPEDFATYYCQHFWITPWTFGGGTKVEIKR"
  qualitative.label: "label 1"
- binder: "Hu303-004 (antibody, human IgG4 S228P, kappa, V domains shown, Humanized mAb303) VH: QVQLVQSGAEVKKPGASVKVSCKASGYTFTDYYMNWVRQAPGQRLEWMGVINPYNGDTAYNQKFKGRVTITRDTSASTAYMELSSLRSEDTAVYYCARDDGYYDYYFDVWGQGTTVTVSS VL: DIQMTQSPSSLSASVGDRVTITCRASQDIGSRLNWYQQKPGKAPKLLIYATSTLDSGVPSRFSGSGSGTDFTLTISSLQPEDFATYYCLQLASSPPTFGGGTKVEIKR"
  qualitative.label: "label 0"
- binder: "Hu229-013 (antibody, human IgG4 S228P, kappa, V domains shown, also called LAG-3 antibody Hu229-013; LAG3 antibody Hu229-013) VH: QVQLVQSGSELKKPGASVKVSCKASGYTFTTSGMSWVKQAPGQGLKWMGWINTYSGVPTYADDFKGRFVFSLDTSVSTAYLQISSLKAEDTATYYCARDNYDARDVYYYAMDYWGQGTTVTVSS VL: DIQMTQSPSSLSASVGDRVTITCRASENIYSNLAWYQQKPGKAPKLLVYAATNLADGVPSRFSGSGSGTDYTLTISSLQPEDFATYYCQHFWITPWTFGGGTKVEIKR"
  qualitative.label: "label 1"

Here is the next item to consider.
Request: Decide: pKd of Hu303-009 (antibody, human IgG4 S228P, kappa, V domains shown, Humanized mAb303) VH: QVQLVQSGAEVKKPGASVKVSCKASGYTFTDYYMNWVRQAPGQRLEWMGVINPYNGDTAYNQKFKGRVTITVDKSASTAYMELSSLRSEDTAVYYCTRDDGYYDYYFDVWGQGTTVTVSS VL: DIQMTQSPSSLSASVGDRVTITCRASQDIGSRLNWYQQKPGKAPKLLIYATSTLDSGVPSRFSGSGSGTDFTLTISSLQPEDFATYYCLQLASSPPTFGGGTKVEIKR >= 10?
Result: label 0
